Target: NOTCH4; note: reference of the scale not given here
Experiment: pooled miR-30 sensor sort-seq; sequence = guide strand
Conditions: shRNA
sensor-assay potency score (higher = more potent) by entry:
Output spec: single numeric token, no unit.

Q: Specify sensor-assay potency score (higher = more potent) for TTGGCTGAACAGAAGTCCCGAA and stop.
Result: -0.0674

Q: Specify sensor-assay potency score (higher = more potent) for TATATAGGAAAGAACATCTTAC and stop.
Result: 0.0056

Q: Specify sensor-assay potency score (higher = more potent) for TATCTTCCTCGCATTATCGCAG and stop.
Result: -0.574

Q: Specify sensor-assay potency score (higher = more potent) for TTGAGCAGTTCTGTCCATCGTA and stop.
Result: 0.59

Q: Specify sensor-assay potency score (higher = more potent) for TTTAGGGTTCTTAAATAGCGAT and stop.
Result: -1.06

Q: Specify sensor-assay potency score (higher = more potent) for TTTCTGGTCCTTACATATCTGC and stop.
Result: -1.07

Others:
Q: Specify sensor-assay potency score (higher = more potent) for TAGGGGTACACCATGTCCCTGC and stop.
Result: 0.0292
